- MEASURED_ON: USP30 (Homo sapiens, UniProt Q70CQ3)
- Construct: purchased Boston Biochem E582
- Sequence (Q70CQ3 57-517 limits assumed): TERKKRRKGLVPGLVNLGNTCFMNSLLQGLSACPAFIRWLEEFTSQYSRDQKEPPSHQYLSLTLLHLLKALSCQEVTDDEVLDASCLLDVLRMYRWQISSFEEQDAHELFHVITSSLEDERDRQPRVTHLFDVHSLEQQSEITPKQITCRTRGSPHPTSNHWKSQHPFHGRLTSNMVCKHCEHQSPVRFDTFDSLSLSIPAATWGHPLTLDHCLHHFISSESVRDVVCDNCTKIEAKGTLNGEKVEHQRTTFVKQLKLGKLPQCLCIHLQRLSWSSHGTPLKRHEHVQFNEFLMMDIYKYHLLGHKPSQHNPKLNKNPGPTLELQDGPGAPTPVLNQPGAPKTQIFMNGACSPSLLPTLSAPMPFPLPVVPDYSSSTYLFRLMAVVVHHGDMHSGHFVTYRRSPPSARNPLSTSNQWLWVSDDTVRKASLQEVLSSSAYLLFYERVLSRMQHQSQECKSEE
- TEST_NAME: USP30 biochemical IC50 assay (fluorescence polarisation)
- TEST_SETTINGS: USP30 biochemical IC50 assay, exemplary compounds; read-out: IC50
MEASURED_PROPERTY: pIC50
One number for each entry, as −log10 of the molar value.

These recorded examples may help you get a feel for the data.
• COc1ccc(C#N)cc1-c1nnc(C(=O)N[C@@H]2C[C@@H](C)N(C#N)C2)o1 = 7.47
• N#Cc1cccc(-c2nnc(C(=O)N[C@@H]3C[C@@H](CF)N(C#N)C3)o2)c1 = 7.89
• C[C@@H]1C[C@@H](NC(=O)c2nnc(-c3cccc(C#N)c3)o2)CN1C#N = 7.54
• COC[C@@H]1C[C@@H](NC(=O)c2nnc(-c3cccc(C#N)c3)o2)CN1C#N = 7.43

Shift focus to the following entry.
Enquiry: Given "COC[C@@H]1C[C@@H](NC(=O)c2nnc(-c3cc(C#N)ccc3OC)o2)CN1C#N" , state its recorded pIC50.
Return: 7.54

###

- TEST_NAME: Brain homogenate free fraction, equilibrium dialysis
- Format: in vitro ADME
- TEST_SETTINGS: mouse brain tissue homogenate; read-out: Binding Mouse Brain fu, br
MEASURED_PROPERTY: fraction unbound
Numbers only.

Enquiry: // lookup fraction unbound for "C[C@@H]1C[C@@H](NC(=O)c2nnc(-c3cccc(C#N)c3)o2)CN1C#N"
Return: 0.26

###

- MEASURED_ON: USP30 (Homo sapiens, UniProt Q70CQ3)
- Construct: purchased Boston Biochem E582
- TEST_NAME: USP30 biochemical IC50 assay (fluorescence polarisation)
- TEST_SETTINGS: read-out: DUB IC50 (μM) USP30
MEASURED_PROPERTY: IC50 (µM)
Answers are plain numbers, in µM.

• N#CN1CC[C@H](C(=O)Nc2ncc(-c3ccccc3)s2)C1 [E, reference compound] = 0.31

Now consider a different compound.
Enquiry: IC50 lookup needed for CC1CC(C(=O)Nc2ncc(-c3ccccc3)s2)CN1C#N (centres unmarked) [G, reference compound] , thanks.
Return: 4.4

###

- TEST_NAME: Plasma free fraction, equilibrium dialysis
- Type: in vitro ADME
- TEST_SETTINGS: mouse plasma; read-out: Binding Mouse Plasma fu, p
- Description: Plasma fu,p: The free fraction of a compound in plasma preparation determined by in vitro equilibrium dialysis. It is understood that only unbound (free) compound is capable of engaging with the target.
MEASURED_PROPERTY: fraction unbound
Give bare numbers.

Enquiry: # fraction unbound lookup, item "C[C@@H]1C[C@@H](NC(=O)c2nnc(-c3cccc(C#N)c3)o2)CN1C#N"
Return: 0.54
